# System: E. coli C7 (018:K1:H7) LPS heptosylation
# Experimental protocol: Inhibition of E. coli C7 (018:K1:H7) LPS biosynthesis (LPS gel electrophoresis, Re-LPS band)
# Type: cell-based
# Condition: read-out: EC50 of E. coli C7 LPS heptosylation inhibition
pEC50: −log10 of the molar value.

>  <Compound>
O=CN(O)C(CO)[C@H](O)[C@H](O)[C@H](O)CCP(=O)(O)O (single isomer, unassigned)

>  <pEC50>
3.74

$$$$

###

# System name: GmhA of E. coli (Escherichia coli, UniProt P63224)
# Sequence (P63224 whole entry): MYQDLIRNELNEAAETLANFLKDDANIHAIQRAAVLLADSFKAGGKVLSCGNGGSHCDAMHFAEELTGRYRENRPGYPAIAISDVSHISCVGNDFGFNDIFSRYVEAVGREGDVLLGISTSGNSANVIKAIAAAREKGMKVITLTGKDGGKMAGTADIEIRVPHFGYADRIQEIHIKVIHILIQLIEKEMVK
# Experimental protocol: Inhibition of the enzymatic activity of GmhA (luminescent assay)
# Type: biochemical
# Condition: read-out: IC50 GmhA E. coli

>  <Compound>
O=CN(O)C(CO)[C@H](O)[C@H](O)[C@H](O)CCP(=O)(O)O (single isomer, unassigned) [Example 7]

>  <System name>
GmhA of E. coli (Escherichia coli, UniProt P63224)

>  <IC50>
46 nM

$$$$
>  <Compound>
O=CN(O)C[C@H](O)[C@H](O)[C@H](O)COP(=O)([O-])O.[Na+]

>  <System name>
GmhA of E. coli (Escherichia coli, UniProt P63224)

>  <IC50>
2.4 nM

$$$$
>  <Compound>
O=CN(O)C(CO)[C@H](O)[C@H](O)[C@H](O)CCP(=O)(O)O (single isomer, unassigned) [Example 8]

>  <System name>
GmhA of E. coli (Escherichia coli, UniProt P63224)

>  <IC50>
27 nM

$$$$
